Test system: Klebsiella aerogenes 1522 E
Experiment: In vitro anti-bacterial activity test (MIC, two-fold dilution method) against the standard strains
Assay type: cell-based
Conditions: Table 1 strain 18: Klebsiella aerogenes 1522 E
quantity-kind: log10 of MIC (log10 of the value in µg/mL)
Would you kindly interpret these values as log10 of MIC expressed in µg/mL?

>>> recorded_result("Nc1c(F)c(N2CCC3(CC3N)C2)c(F)c2c1c(=O)c(C(=O)O)cn2C1CC1 (stereo not drawn) [Example 7]")
-1.01
>>> recorded_result("CC(O)C(=O)O.NC1CC12CCN(c1c(F)cc3c(=O)c(C(=O)O)cn(C4CC4)c3c1F)C2 (stereo not drawn) [Example 2]")
-1.60
>>> recorded_result("CNC1CC12CCN(c1c(F)cc3c(=O)c(C(=O)O)cn4c3c1OC[C@@H]4C)C2 (stereo partly drawn) [Example 10]")
-1.01
>>> recorded_result("COc1c(N2CCC3(CC3N)C2)c(F)cc2c(=O)c(C(=O)O)cn(C3CC3)c12 (stereo not drawn) [Example 19]")
-1.01

For CNC1CC12CCN(c1c(F)cc3c(=O)c(C(=O)O)cn(C4CC4)c3c1Cl)C2 (stereo not drawn) [Example 9] the compound record lists log10 of MIC as -0.71

For CC(O)C(=O)O.NC1CC12CCN(c1c(F)cc3c(=O)c(C(=O)O)cn(C4CC4)c3c1Cl)C2 (stereo not drawn) [Example 4] the compound record lists log10 of MIC as -1.60

For CC1COc2c(N3CCN(C)CC3)c(F)cc3c(=O)c(C(=O)O)cn1c23 (stereo not drawn) [Ofloxacin, ofloxacin, reference compound] the compound record lists log10 of MIC as -1.31
